Target: BLM642-1290 R959A (UniProt P54132 642-1290, R959A)
Sequence (P54132 642-1290 R959A): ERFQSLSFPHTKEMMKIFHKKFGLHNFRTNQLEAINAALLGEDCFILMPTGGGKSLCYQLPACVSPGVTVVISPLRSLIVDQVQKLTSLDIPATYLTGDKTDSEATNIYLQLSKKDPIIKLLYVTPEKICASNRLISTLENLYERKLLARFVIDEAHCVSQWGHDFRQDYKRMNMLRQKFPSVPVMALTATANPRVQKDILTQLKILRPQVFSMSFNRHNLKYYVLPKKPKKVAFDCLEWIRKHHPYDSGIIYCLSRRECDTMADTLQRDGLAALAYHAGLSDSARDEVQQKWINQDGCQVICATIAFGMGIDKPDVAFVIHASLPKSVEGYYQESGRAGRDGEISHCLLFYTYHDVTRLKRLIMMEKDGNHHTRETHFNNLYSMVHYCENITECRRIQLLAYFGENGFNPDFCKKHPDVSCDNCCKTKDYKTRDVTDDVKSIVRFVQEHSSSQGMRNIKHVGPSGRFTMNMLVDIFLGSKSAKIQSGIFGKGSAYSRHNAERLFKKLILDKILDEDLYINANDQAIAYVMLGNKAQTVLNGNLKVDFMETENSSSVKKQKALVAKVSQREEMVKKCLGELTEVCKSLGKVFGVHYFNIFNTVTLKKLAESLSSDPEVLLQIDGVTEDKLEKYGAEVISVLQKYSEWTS
Assay: fluorescence anisotropy
PROPERTY: pKd
Scale explanation: pKd corresponds to minus log10 of a concentration expressed in moles per litre.

What value of pKd has been reported for the following binder? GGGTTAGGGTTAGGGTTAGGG (ssDNA) [oligonucleotide D (21-mer)] 8.38
